Assay: Tumor homogenate activation efficiency, sarcoma tissue (Examples 28, 37)
Format: in vitro ADME
Conditions: pH 5.0, 37° C., 2 h; Table 10
Protocol: Buffer preparation: 50 mM PH buffer (MES), 250 mM NaCl, pH adjusted to 5.0 with 0.5 M of sodium hydroxide. The polypeptide conjugate was prepared into a 1 mg/ml solution with pH 5.0 buffer, 100 μg of tumor tissue homogenate was added, (the tumor tissue homogenate was the homogenate of tumor tissues prepared with a Jingxin F6/10 handheld homogenizer), and the solution was placed at 37° C. for 2 h. […]
Where a SMILES comes first, the peptide text is derived from it. The star is where a group is joined. Belotecan = CC[C@@]1(O)C(=O)OCc2c1cc1n(c2=O)Cc2c-1nc1ccccc1c2CCN(C(C)C)*; X2 = CCCCN(CCc1c2c(nc3ccccc13)-c1cc3c(c(=O)n1C2)COC(=O)[C@]3(O)CC)*; X8 = CC[C@@]1(O)C(=O)OCc2c1cc1n(c2=O)Cc2c-1nc1ccccc1c2CCN(C1CCCC1)*; X7 = CC[C@@]1(O)C(=O)OCc2c1cc1n(c2=O)Cc2c-1nc1ccccc1c2CCN(C)*; Propanoyl(3-maleimido) = O=C1C=CC(=O)N1CCC(=O)*; PEG6 = NCCOCCOCCOCCOCCOCCOCCC(=O)O
quantity: Percentage of release efficiency (%) Sarcoma tissue (SJSA1)
Entry rule: numbers only, all in %.

What value of Percentage of release efficiency (%) Sarcoma tissue (SJSA1) has been recorded for this entry: CC[C@@]1(O)C(=O)OCc2c1cc1n(c2=O)Cc2c-1nc1ccccc1c2CCN(C(=O)[C@H](CC(C)C)NC(=O)[C@H](Cc1ccccc1)NC(=O)CNC(=O)CNC(=O)CCOCCOCCOCCOCCOCCOCCNC(=O)CCN1C(=O)C=CC1=O)C(C)C [MI-6PEG-GGFL-Belotecan] ({Propanoyl(3-maleimido)-PEG6}-GGFL-Belotecan)
68

Dear colleague, I am looking for the recorded Percentage of release efficiency (%) Sarcoma tissue (SJSA1) of the following molecule: CC[C@@]1(O)C(=O)OCc2c1cc1n(c2=O)Cc2c-1nc1ccccc1c2CCN(C(=O)[C@H](CC(C)C)NC(=O)[C@H](CC(N)=O)NC(=O)[C@H](C)NC(=O)[C@H](C)NC(=O)CCOCCOCCOCCOCCOCCOCCNC(=O)CCN1C(=O)C=CC1=O)C1CCCC1 [MI-6PEG-AANL-D8] ({Propanoyl(3-maleimido)-PEG6}-AANL-X8)
81.1

Fill blank: measured Percentage of release efficiency (%) Sarcoma tissue (SJSA1) of the molecule CC[C@@]1(O)C(=O)OCc2c1cc1n(c2=O)Cc2c-1nc1ccccc1c2CCN(C)C(=O)[C@H](CC(C)C)NC(=O)[C@H](Cc1ccccc1)NC(=O)CNC(=O)CNC(=O)CCOCCOCCOCCOCCOCCOCCNC(=O)CCN1C(=O)C=CC1=O [MI-6PEG-GGFL-D1] ({Propanoyl(3-maleimido)-PEG6}-GGFL-X7) is ____.
73.5

Value lookup for Percentage of release efficiency (%) Sarcoma tissue (SJSA1); key = CC[C@@]1(O)C(=O)OCc2c1cc1n(c2=O)Cc2c-1nc1ccccc1c2CCN(C)C(=O)[C@H](CC(C)C)NC(=O)[C@H](CC(N)=O)NC(=O)[C@H](C)NC(=O)[C@H](C)NC(=O)CCOCCOCCOCCOCCOCCOCCNC(=O)CCN1C(=O)C=CC1=O [MI-6PEG-AANL-D1] ({Propanoyl(3-maleimido)-PEG6}-AANL-X7)
81.2

So what does the record say about Percentage of release efficiency (%) Sarcoma tissue (SJSA1) for CCCCN(CCc1c2c(nc3ccccc13)-c1cc3c(c(=O)n1C2)COC(=O)[C@]3(O)CC)C(=O)[C@H](CC(C)C)NC(=O)[C@H](CC(N)=O)NC(=O)[C@H](C)NC(=O)[C@H](C)NC(=O)CCOCCOCCOCCOCCOCCOCCNC(=O)CCN1C(=O)C=CC1=O [MI-6PEG-AANL-D4] ({Propanoyl(3-maleimido)-PEG6}-AANL-X2) ?
81.2

# Percentage of release efficiency (%) Sarcoma tissue (SJSA1) lookup, item CC[C@@]1(O)C(=O)OCc2c1cc1n(c2=O)Cc2c-1nc1ccccc1c2CCN(C(=O)[C@H](CC(C)C)NC(=O)[C@H](CC(N)=O)NC(=O)[C@H](C)NC(=O)[C@H](C)NC(=O)CCOCCOCCOCCOCCOCCOCCNC(=O)CCN1C(=O)C=CC1=O)C(C)C [MI-6PEG-AANL-Belotecan] ({Propanoyl(3-maleimido)-PEG6}-AANL-Belotecan)
75.5

Data provenance is patent US20250235545A1.
